# test.target: T1, rat DPEP3 ECD with histidine tag (rat, UniProt Q5U2X4 36-459, limits assumed)
# T1 construct: also called rDPEP3-His; ratDPEP3-His; not shown: histidine tag
# T1 sequence: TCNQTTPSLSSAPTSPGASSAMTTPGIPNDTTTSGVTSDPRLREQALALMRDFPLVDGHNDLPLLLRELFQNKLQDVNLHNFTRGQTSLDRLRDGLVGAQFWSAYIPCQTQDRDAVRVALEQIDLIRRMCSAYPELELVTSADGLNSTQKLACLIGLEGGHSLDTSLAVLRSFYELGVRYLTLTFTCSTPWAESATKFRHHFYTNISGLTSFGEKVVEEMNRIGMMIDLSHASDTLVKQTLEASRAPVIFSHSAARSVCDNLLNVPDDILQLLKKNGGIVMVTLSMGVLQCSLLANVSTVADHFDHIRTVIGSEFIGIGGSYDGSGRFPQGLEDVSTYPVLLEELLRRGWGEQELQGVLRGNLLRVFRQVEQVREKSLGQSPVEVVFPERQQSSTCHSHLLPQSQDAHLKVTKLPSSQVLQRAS
# test.description: SPR, BIAcore 2000, antibody captured with anti-human capture kit
measurement.label: binding result

Example entries begin here.
>  <binder>
hSC34.14 humanized anti-DPEP3 antibody (antibody, human IgG1, kappa, V domains shown, Human IgG1/kappa) VH: QVQLVQSGAEVKKPGASVKVSCKASGYTFTDYYMHWVRQAPGQRLEWMGRVNPKKGGTTYNQKFEGRVTITRDTSASTAYMELSSLRSEDTAVYYCAMGIYYSYDASFDYWGQGTTVTVSS VL: DIQMTQSPSSLSASVGDRVTITCRTSEHIYSYLAWYQQKPGKAPKLLIYNAKTLAEGVPSRFSGSGSGTDFTLTISSLQPEDFATYYCQHHYDTPYTFGQGTKLEIKR

>  <binding result>
no binding

$$$$
>  <binder>
hSC34.87 humanized anti-DPEP3 antibody (antibody, human IgG1, kappa, V domains shown, Human IgG1/kappa) VH: QVQLVQSGAEVKKPGASVKVSCKASGYTFTSYWMLWVRQAPGQRLEWMGYIDPRNGYTEYNQKFKDRVTITRDTSASTAYMELSSLRSEDTAVYYCARGGNVAMDYWGQGTLVTVSS VL: DIVMTQSPDSLAVSLGERATINCKSSQSLLNSRTRKNYLAWYQQKPGQPPKLLIYWASTRESGVPDRFSGSGSGTDFTLTISSLQAEDVAVYYCKQSYNLWTFGGGTKLEIKR

>  <binding result>
no binding

$$$$
>  <binder>
hSC34.11 humanized anti-DPEP3 antibody (antibody, human IgG1, kappa, V domains shown, Human IgG1/kappa; The order is confirmed for hSC34.2 and hSC34.28) VH: EVQLVQSGAEVKKPGESLKISCKGSGYSFTNYWMIWVRQMPGKGLEWMGYIDPTTDYTAYNQKFKDQVTISADKSISTAYLQWSSLKASDTAMYYCARGGNVALDFWGQGTLVTVSS VL: DIQMTQSPSSLSASVGDRVTITCKSSQSLLNSRTRKNYLAWYQQKPGKVPKLLIYWASTRESGVPSRFSGSGSGTDFTLTISSLQPEDVATYYCKESYNLWTFGGGTKVEIKR

>  <binding result>
no binding

$$$$
>  <binder>
hSC34.25 humanized anti-DPEP3 antibody (antibody, human IgG1, kappa, V domains shown, Human IgG1/kappa) VH: QVQLVQSGAEVKKPGASVKVSCKASGYTFTSYAISWVRQAPGQRLEWMGEIYPGSGETYYNEKFKGRVTITRDTSASTAYMELSSLRSEDTAVYYCARVNDYGSWFPYWGQGTLVTVSS VL: DIVMTQSPDSLAVSLGERATINCKSSQSLLYSRYQKNYVAWYQQKPGQPPKLLIYWASTRESGVPDRFSGSGSGTDFTLTISSLQAEDVAVYYCQQYYRYPLTFGQGTKLEIKR

>  <binding result>
no binding

$$$$
>  <binder>
hSC34.2 humanized anti-DPEP3 antibody (antibody, human IgG1, kappa, V domains shown, Human IgG1/kappa) VH: EVQLVQSGAEVKKPGESLKISCKGSGYSFTDYYINWVRQMPGKGLEWMGWTYPGSGPTKYNGKFRGQVTISADKSISTAYLQWSSLKASDTAMYYCARRGIYYYDGIYPNYFDYWGQGTTVTVSS VL: DIQMTQSPSSLSASVGDRVTITCSASQGITNYLNWYQQKPGKAPKLLIYYTSRLHSGVPSRFSGSGSGTDFTLTISSLQPEDFATYYCQQYSKLPWTFGQGTKVEIKR

>  <binding result>
no binding

$$$$

Fill in: binding result of hSC34.38 humanized anti-DPEP3 antibody (antibody, human IgG1, kappa, V domains shown, Human IgG1/kappa) VH: EVQLVQSGAEVKKPGESLKISCKGSGYSFTSYYMYWVRQMPGKGLEWMGEINPSNGGANFNERFKNQVTISADKSISTAYLQWSSLKASDTAMYYCTRGLLYYDYDRGFAYWGQGTLVTVSS VL: DVVMTQSPLSLPVTLGQPASISCKSSQSLLYSNRRTYLNWFQQRPGQSPRRLIYLVSKLDSGVPDRFSGSGSGTDFTLKISRVEAEDVGVYYCVQGTHFPFTFGQGTKLEIKR is ___
no binding
